Just for reference, PubChem BioAssay (Tox21) is where these values come from.

test_summary: qHTS assay to identify small molecule antagonists of the estrogen receptor alpha (ER-alpha) signaling pathway using the BG1 cell line in the presence of 0.1 nM 17-beta-estradiol - cell viability counter screen (AID 1259241); further: nearly all actives have a fitted effect of over 40% in size
assay_setup: VM7Luc4E2 (BG1) viability, CellTiter-Fluor protease, 22 h, 0.1 nM estradiol agonist added; series mostly up to 92.4 µM
Inconclusive results are not listed. The source made the active and inactive calls. The call rests on the fitted dose curve; in most records, active means well fitted cell-killing curve with a large enough effect in the repeat runs; inconclusive means weak or mixed curves, or effect the other way; inactive means flat fitted curve, though single readings scatter.
Tick one outcome: 1.0 for active, 0.0 for inactive

(Q) Returns: the outcome recorded for CC1=NC(C)OC1C (stereo not given) in this assay.
(A) 0.0

(Q) Returns: the outcome recorded for "CC(C)c1ccc2c(c1)CC[C@H]1[C@](C)(CN)CCC[C@]21C" in this assay.
(A) 0.0

(Q) Returns: the outcome recorded for "CCCCCCCCCCCC[N+](C)(C)CCCCCCCCCCCC" in this assay.
(A) 1.0

(Q) Returns: the outcome recorded for "Oc1cccc2cc3cccc(O)c3c(O)c12" in this assay.
(A) 0.0

(Q) Returns: the outcome recorded for "CCc1oc2ccccc2c1C(=O)c1cc(Br)c(O)c(Br)c1" in this assay.
(A) 0.0

(Q) Returns: the outcome recorded for "CCCCCCCCCCCCCCCS(=O)(=O)Oc1ccccc1" in this assay.
(A) 0.0

(Q) Returns: the outcome recorded for "CN(C)c1ccc(C2(c3ccc(N(C)C)cc3)OC(=O)c3cc(N(C)C)ccc32)cc1" in this assay.
(A) 0.0

(Q) Returns: the outcome recorded for "COc1cc(-c2ccc(N=C=O)c(OC)c2)ccc1N=C=O" in this assay.
(A) 0.0

(Q) Returns: the outcome recorded for "CCCCN1C(=O)[C@@H]([C@H](O)C2CCCCC2)NC(=O)C12CCN(Cc1ccc(Oc3ccc(C(=O)O)cc3)cc1)CC2" in this assay.
(A) 0.0

(Q) Returns: the outcome recorded for "C[C@]12CCC(=O)C=C1CC[C@@H]1[C@@H]2[C@@H](O)C[C@@]2(C)[C@H]1CC[C@]2(O)C(=O)COC(=O)CCC(=O)O" in this assay.
(A) 0.0
